What cAMP levels, Percent of Pyr-Apelin-13 Control Activity (10 µM peptide, 10 µM forskolin) was measured for each of the following?
# experimental.target: T1, Apelin Receptor (APJ) stably overexpressed in CHO-K1 AGTRL1 Gi cells (human, UniProt P35414 1-380)
# T1 sequence (looked up): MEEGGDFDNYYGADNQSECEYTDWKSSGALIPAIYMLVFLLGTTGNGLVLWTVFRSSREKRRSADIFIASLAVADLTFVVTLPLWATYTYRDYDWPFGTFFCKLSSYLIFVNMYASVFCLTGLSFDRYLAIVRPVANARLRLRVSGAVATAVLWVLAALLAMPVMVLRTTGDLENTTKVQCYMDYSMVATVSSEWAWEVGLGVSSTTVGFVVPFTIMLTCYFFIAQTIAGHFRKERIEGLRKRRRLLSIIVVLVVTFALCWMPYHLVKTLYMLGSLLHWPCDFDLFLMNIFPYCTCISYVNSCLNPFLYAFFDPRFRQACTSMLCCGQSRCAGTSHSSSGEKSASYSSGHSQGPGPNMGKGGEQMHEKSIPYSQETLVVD
# assay.info: cell-based or functional assay
Non-standard residues stand in square brackets, D forms with d. No end group written: not given here.

binder | endpoint.value
RRMMGMVFQSLCG[dA] [SEQ ID NO 15] | 105 % of Pyr-Apelin-13 control

For each of the binders below, state cAMP levels, Percent of Pyr-Apelin-13 Control Activity (10 µM peptide, 10 µM forskolin).
1. Ac-RRMMGMVFQSLCG[dA]-NH2 [SEQ ID NO 63]
2. RRMMGMVFQSLCG[dA]-NH2 [SEQ ID NO 62]
3. RRMMGMVEQSLCG[dA] [SEQ ID NO 38]

Result:
1. 21 % of Pyr-Apelin-13 control
2. 27 % of Pyr-Apelin-13 control
3. 12 % of Pyr-Apelin-13 control

For each of the binders below, state cAMP levels, Percent of Pyr-Apelin-13 Control Activity (10 µM peptide, 10 µM forskolin).
1. RRMMGMVFQS [SEQ ID NO 59]
2. RMMGMVFQS [SEQ ID NO 52]
3. MMGMVFQSLCG[dA] [SEQ ID NO 49]

Result:
1. -2 % of Pyr-Apelin-13 control
2. 15 % of Pyr-Apelin-13 control
3. 14 % of Pyr-Apelin-13 control
